- Assay protocol: in vitro
- Study conditions: rat, liver microsomes
Listed next: entries and their corresponding half-life.
Quantity measured: half-life (min)

>>> print(df.to_string())
                          chemical_structure  lt_gt_eq  recorded_result
 0  O=C(Nc1ccc([N+](=O)[O-])cc1Cl)c1cnc2ccccc2c1O         =               18
 1           COc1cccc(NC(=O)c2cc(Cl)ccc2O)c1         =                4
 2  O=C(Nc1ccc([N+](=O)[O-])cc1Cl)c1c(O)cccc1O         =             26.2
 3  Cc1ccc(O)c(C(=O)Nc2ccc([N+](=O)[O-])cc2Cl)c1         =             19.5
 4  O=C(Nc1ccc(C(F)(F)F)cc1Cl)c1cc(-c2ccc(F)cc2F)ccc1O         >               30
 5         O=C(Nc1ccc(Cl)cc1Cl)c1cc(Cl)ccc1O         >               30
 6            CN1CCC(NC(=O)c2cc(Cl)ccc2O)CC1         =              1.8
 7  O=C(Nc1ccc([N+](=O)[O-])cc1Cl)c1c(O)ccc2ccccc12         =             14.4
 8  O=C(Nc1ccc([N+](=O)[O-])cc1Cl)c1cccc2cc[nH]c12         >               30
 9            Cc1ccc(NC(=O)c2cc(Cl)ccc2O)cc1         =              1.6
10  Nc1ccc(Cl)cc1C(=O)Nc1ccc([N+](=O)[O-])cc1Cl         =              8.7

###

- Assay protocol: in vitro
- Study conditions: rat, liver microsomes
Quantity measured: log10(half-life) (log10 of the value in min)

>>> print(df.to_string())
                         chemical_structure  recorded_result
0            O=C(Nc1ccc(F)cc1)c1cc(Cl)ccc1O             1.26
1   CN(C)C(=O)c1cccc(NC(=O)c2cc(Cl)ccc2O)c1             1.41
2  COc1ccc(Cl)cc1C(=O)Nc1ccc([N+](=O)[O-])cc1Cl             1.43
3       COc1ccc(Cl)c(NC(=O)c2cc(Cl)ccc2O)c1             0.73
4             O=C(Nc1ccccc1Cl)c1cc(Cl)ccc1O             1.28
5         CC(C)c1cnc(NC(=O)c2cc(Cl)ccc2O)s1             0.30
6   N#Cc1ccc(NC(=O)c2cccc3cc[nH]c23)c(Cl)c1             1.18
7        O=C(Nc1ccc(F)c(Cl)c1)c1cc(Cl)ccc1O             1.04

###

- Assay protocol: in vitro
- Study conditions: PAMPA
Listed next: entries and their corresponding Papp.
Quantity measured: Papp (×10⁻⁶ cm/s)

>>> df
                         chemical_structure  quantity_measured  units_label  lt_gt_eq  recorded_result
0  Nc1ccc(Cl)cc1C(=O)Nc1ccc([N+](=O)[O-])cc1Cl               Papp   ×10⁻⁶ cm/s         =              671
1   CN(C)C(=O)c1cccc(NC(=O)c2cc(Cl)ccc2O)c1               Papp   ×10⁻⁶ cm/s         =                5
2  CS(=O)(=O)Nc1ccc(Br)cc1C(=O)Nc1ccc([N+](=O)[O-])cc1Cl               Papp   ×10⁻⁶ cm/s         =             85.1
3  O=C(Nc1ccc([N+](=O)[O-])c(Cl)c1)c1cc(Cl)ccc1O               Papp   ×10⁻⁶ cm/s         =               68
4   NS(=O)(=O)c1ccc(NC(=O)c2cc(Cl)ccc2O)cc1               Papp   ×10⁻⁶ cm/s         <                1
5  COc1ccc(O)c(C(=O)Nc2ccc([N+](=O)[O-])cc2Cl)c1               Papp   ×10⁻⁶ cm/s         =             67.1
6  COc1ccc(C(=O)Nc2ccc([N+](=O)[O-])cc2Cl)c(O)c1               Papp   ×10⁻⁶ cm/s         <                3
7            Cc1ccc(NC(=O)c2cc(Cl)ccc2O)cc1               Papp   ×10⁻⁶ cm/s         =               21
